B1: library; a variant is named by its letters at N, in order (parent)
chain: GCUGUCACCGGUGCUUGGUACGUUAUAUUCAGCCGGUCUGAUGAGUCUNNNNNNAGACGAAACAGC

- Variants of: B1
- run description: FACS-Seq fitted mean relative fluorescence mCherry/BFP without ligand (log10 relative fluorescence); HEK293T overexpressing SLC46A1; higher = higher reporter protein expression
- condition notes: without (6R,S)-folinic acid; ligand present: no
Could you label it Criterion met if measured FACS-Seq fitted mean (log10) is 0.4 or higher, and Criterion not met otherwise?

Does `GCUGUCACCGGUGCUUGGUACGUUAUAUUCAGCCGGUCUGAUGAGUCUUAACACAGACGAAACAGC` have a reported FACS-Seq fitted mean (log10) of at least 0.4?
Criterion not met

Can `GCUGUCACCGGUGCUUGGUACGUUAUAUUCAGCCGGUCUGAUGAGUCUGAUGCAAGACGAAACAGC` be said to have FACS-Seq fitted mean (log10) at or above 0.4?
Criterion met

Is reported FACS-Seq fitted mean (log10) greater than or equal to 0.4 here: `GCUGUCACCGGUGCUUGGUACGUUAUAUUCAGCCGGUCUGAUGAGUCUCGAAAGAGACGAAACAGC`
Criterion not met

Please indicate if the recorded FACS-Seq fitted mean (log10) for `GCUGUCACCGGUGCUUGGUACGUUAUAUUCAGCCGGUCUGAUGAGUCUGGGCGGAGACGAAACAGC` meets or exceeds 0.4.
Criterion not met

Is FACS-Seq fitted mean (log10) for `GCUGUCACCGGUGCUUGGUACGUUAUAUUCAGCCGGUCUGAUGAGUCUAUAACCAGACGAAACAGC` at or above 0.4?
Criterion not met

Is FACS-Seq fitted mean (log10) for `GCUGUCACCGGUGCUUGGUACGUUAUAUUCAGCCGGUCUGAUGAGUCUAAGAGAAGACGAAACAGC` at or above 0.4?
Criterion not met

Textbook exercise: given the entry `GCUGUCACCGGUGCUUGGUACGUUAUAUUCAGCCGGUCUGAUGAGUCUGGUUAUAGACGAAACAGC` , state whether its FACS-Seq fitted mean (log10) is greater than or equal to 0.4.
Criterion met

Is it the case that `GCUGUCACCGGUGCUUGGUACGUUAUAUUCAGCCGGUCUGAUGAGUCUGUUGCGAGACGAAACAGC` has FACS-Seq fitted mean (log10) reaching or exceeding 0.4?
Criterion not met

Given `GCUGUCACCGGUGCUUGGUACGUUAUAUUCAGCCGGUCUGAUGAGUCUGGACGAAGACGAAACAGC` , state whether its FACS-Seq fitted mean (log10) is at least 0.4.
Criterion not met

Dear colleague, could you confirm whether `GCUGUCACCGGUGCUUGGUACGUUAUAUUCAGCCGGUCUGAUGAGUCUUGUUAAAGACGAAACAGC` has FACS-Seq fitted mean (log10) at or above 0.4?
Criterion not met

Can `GCUGUCACCGGUGCUUGGUACGUUAUAUUCAGCCGGUCUGAUGAGUCUGGCGAUAGACGAAACAGC` be said to have FACS-Seq fitted mean (log10) at or above 0.4?
Criterion met

Would you say `GCUGUCACCGGUGCUUGGUACGUUAUAUUCAGCCGGUCUGAUGAGUCUACUUAGAGACGAAACAGC` shows FACS-Seq fitted mean (log10) at minimum 0.4?
Criterion met

Can `GCUGUCACCGGUGCUUGGUACGUUAUAUUCAGCCGGUCUGAUGAGUCUACAAGGAGACGAAACAGC` be said to have FACS-Seq fitted mean (log10) at or above 0.4?
Criterion met

Quick check: does `GCUGUCACCGGUGCUUGGUACGUUAUAUUCAGCCGGUCUGAUGAGUCUAUCACAAGACGAAACAGC` have FACS-Seq fitted mean (log10) greater than or equal to 0.4?
Criterion not met

Entry `GCUGUCACCGGUGCUUGGUACGUUAUAUUCAGCCGGUCUGAUGAGUCUGAUUGUAGACGAAACAGC` : is its FACS-Seq fitted mean (log10) no less than 0.4?
Criterion not met

Could you tell me if the measured FACS-Seq fitted mean (log10) of `GCUGUCACCGGUGCUUGGUACGUUAUAUUCAGCCGGUCUGAUGAGUCUGUGACCAGACGAAACAGC` reaches 0.4 or more?
Criterion met

Say whether `GCUGUCACCGGUGCUUGGUACGUUAUAUUCAGCCGGUCUGAUGAGUCUACGGCAAGACGAAACAGC` shows FACS-Seq fitted mean (log10) of 0.4 or more.
Criterion not met

Hi team, for `GCUGUCACCGGUGCUUGGUACGUUAUAUUCAGCCGGUCUGAUGAGUCUUAUAUGAGACGAAACAGC` , is the recorded FACS-Seq fitted mean (log10) at or above 0.4?
Criterion not met

Is FACS-Seq fitted mean (log10) for `GCUGUCACCGGUGCUUGGUACGUUAUAUUCAGCCGGUCUGAUGAGUCUUCAGCGAGACGAAACAGC` at or above 0.4?
Criterion not met

Entry `GCUGUCACCGGUGCUUGGUACGUUAUAUUCAGCCGGUCUGAUGAGUCUGCGUAAAGACGAAACAGC` : is its FACS-Seq fitted mean (log10) no less than 0.4?
Criterion not met
